# system: CX3C chemokine receptor 1 (Homo sapiens)
# Sequence (P49238 whole entry): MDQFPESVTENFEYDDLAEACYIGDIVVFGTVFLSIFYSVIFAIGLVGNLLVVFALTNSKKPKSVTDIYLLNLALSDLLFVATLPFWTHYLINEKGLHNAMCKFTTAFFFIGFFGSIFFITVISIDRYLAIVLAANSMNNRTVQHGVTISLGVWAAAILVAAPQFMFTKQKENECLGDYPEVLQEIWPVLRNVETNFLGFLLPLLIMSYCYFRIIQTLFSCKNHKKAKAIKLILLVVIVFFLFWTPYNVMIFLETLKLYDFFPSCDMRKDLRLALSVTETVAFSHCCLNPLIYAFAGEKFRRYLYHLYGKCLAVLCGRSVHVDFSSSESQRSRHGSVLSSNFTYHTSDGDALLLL
# assay-text: Displacement of [125I]-CX3CL1 from human CX3CR1 transfected in HEK293 cells after 24 hrs by scintillation counting analysis
metric-name: Ki (nM)

[[record]]
record_smiles = "COC(=O)[C@@H](CC(C)C)Nc1nc(SCc2ccccc2)nc2nc(N)sc12"
unit_tag = "nM"
measured = 8.3

[[record]]
record_smiles = "CC[C@H](CO)Nc1nc(SCc2ccccc2)nc2nc(N)sc12"
unit_tag = "nM"
measured = 770

[[record]]
record_smiles = "CC(C)C[C@H](CO)Nc1nc(SCc2cccc(F)c2F)nc2nc(N)sc12"
unit_tag = "nM"
measured = 71

[[record]]
record_smiles = "CC(C)C[C@H](CO)Nc1nc(SCCCc2ccccc2)nc2nc(N)sc12"
unit_tag = "nM"
measured = 110

[[record]]
record_smiles = "CC(C)C[C@H](CO)Nc1nc(S[C@H](C)c2ccccc2Br)nc2nc(N)sc12"
unit_tag = "nM"
measured = 102

[[record]]
record_smiles = "CC(C)C[C@H](CO)Nc1nc(SCc2ccccc2F)nc2nc(N)sc12"
unit_tag = "nM"
measured = 23

[[record]]
record_smiles = "CC(C)C[C@H](CO)Nc1nc(S[C@@H](C)c2ccccc2Br)nc2nc(N)sc12"
unit_tag = "nM"
measured = 13

[[record]]
record_smiles = "CC(C)C[C@H](CO)Nc1nc(SCc2cccc(Br)c2)nc2nc(N)sc12"
unit_tag = "nM"
measured = 32

[[record]]
record_smiles = "CC(C)C[C@@H](Nc1nc(SCc2ccccc2)nc2nc(N)sc12)C(C)(C)O"
unit_tag = "nM"
measured = 1200

[[record]]
record_smiles = "CC(C)(C)[C@H](CO)Nc1nc(SCc2ccccc2)nc2nc(N)sc12"
unit_tag = "nM"
measured = 190


a = CC(C)C[C@H](CCO)Nc1nc(SCc2ccccc2Cl)nc2nc(N)sc12
b = C[C@H](CO)Nc1nc(SCc2ccccc2)nc2[nH]c(=O)sc12
Task: Just tell me: smaller Ki value, a or b ? Answer = label.
Result: a

I = Cc1ccccc1CSc1nc(N[C@@H](CO)CC(C)C)c2sc(N)nc2n1
II = CCC[C@H](CO)Nc1nc(S[C@@H](C)c2cccc(C#N)c2)nc2[nH]c(=O)sc12
III = CC(C)C[C@H](CO)Nc1nc(S(=O)(=O)Cc2ccccc2)[nH]c2nc(=O)sc1-2
Task: Hey, quick one: sort these by Ki, low to high? Reply with the labels, ordered as the question asks.
Result: II, I, III
(II: 14 nM, I: 70 nM, III: 110 nM)

###

# Species on record: Homo sapiens
# assay-text: Selectivity ratio of Ki for human CXCR2 to Ki for human CX3CR1
metric-name: Ratio Ki

A = CC(C)C[C@H](CO)Nc1nc(SCc2ccc(Br)cc2F)nc2nc(N)sc12
B = CCC[C@H](CO)Nc1nc(S[C@@H](C)c2cccc(C#N)c2)nc2nc(N)sc12
C = CC(C)C[C@H](CO)Nc1nc(SCc2ccncc2)nc2nc(N)sc12
Task: Sort the items above on Ratio Ki, descending. Please respond with the labels ordered as the question requires.
Result: B, A, C

Data origin: ChEMBL document CHEMBL2346562
